tested target: human CGRP receptor (human, UniProt Q16602 23-461; O60894 27-148)
Sequence (Q16602 23-461, chain 1 of 2): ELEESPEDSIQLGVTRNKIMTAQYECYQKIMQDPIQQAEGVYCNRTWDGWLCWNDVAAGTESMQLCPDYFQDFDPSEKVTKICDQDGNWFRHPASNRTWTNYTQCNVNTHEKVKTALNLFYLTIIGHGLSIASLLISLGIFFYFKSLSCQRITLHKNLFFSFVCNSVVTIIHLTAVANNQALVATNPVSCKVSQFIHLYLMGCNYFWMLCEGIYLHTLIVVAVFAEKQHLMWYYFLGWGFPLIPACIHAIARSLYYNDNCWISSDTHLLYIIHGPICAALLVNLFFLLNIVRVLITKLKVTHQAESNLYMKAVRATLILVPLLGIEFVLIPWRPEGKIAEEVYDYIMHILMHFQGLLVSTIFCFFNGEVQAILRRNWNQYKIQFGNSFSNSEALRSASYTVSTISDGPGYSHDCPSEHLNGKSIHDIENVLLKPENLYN
Sequence (O60894 27-148, chain 2 of 2): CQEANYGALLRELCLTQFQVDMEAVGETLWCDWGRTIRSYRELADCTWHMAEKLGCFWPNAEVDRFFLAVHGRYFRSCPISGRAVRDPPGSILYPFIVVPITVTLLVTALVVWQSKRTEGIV
method description: cell-based or functional assay
Field: % Relative Potency by Cell-Based Bioassay. Provide a value for each of the binders that follow.
Output spec: scalar in %, unitless text.

What the record says about Erenumab HIC-HPLC Pre-peak Fraction F2 (antibody, human IgG2, lambda, V domains shown, Asp105 isomerization (isoAsp) 26.4%; Asp105 succinimide 1.4%; Asn102 deamidation 0.1%; Leu195/Ser196 cleavage 1.0%) VH: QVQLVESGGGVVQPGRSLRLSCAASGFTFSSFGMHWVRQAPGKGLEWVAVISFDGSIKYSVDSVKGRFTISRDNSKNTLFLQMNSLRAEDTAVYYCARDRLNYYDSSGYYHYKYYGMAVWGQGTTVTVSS VL: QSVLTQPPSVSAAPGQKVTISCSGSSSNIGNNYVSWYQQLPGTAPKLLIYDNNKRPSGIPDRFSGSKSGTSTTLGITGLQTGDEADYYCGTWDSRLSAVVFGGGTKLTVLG : % Relative Potency by Cell-Based Bioassay is 24

What the record says about Erenumab HIC-HPLC Main Fraction F5 (antibody, human IgG2, lambda, V domains shown, Asp105 isomerization ND; Asp105 succinimide 0.1%; Asn102 deamidation ND; Leu195/Ser196 cleavage 0.3%) VH: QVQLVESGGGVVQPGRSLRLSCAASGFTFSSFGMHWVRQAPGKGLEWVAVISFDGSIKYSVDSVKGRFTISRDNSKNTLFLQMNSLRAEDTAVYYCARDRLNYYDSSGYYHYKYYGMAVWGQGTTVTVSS VL: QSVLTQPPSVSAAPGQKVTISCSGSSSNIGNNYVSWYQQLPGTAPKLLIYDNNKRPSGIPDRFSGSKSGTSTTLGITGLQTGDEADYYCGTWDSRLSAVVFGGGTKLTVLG : % Relative Potency by Cell-Based Bioassay is 107

What the record says about Erenumab HIC-HPLC Post-peak Fraction F6 (antibody, human IgG2, lambda, V domains shown, Asp105 isomerization (isoAsp) 13.2%; Asp105 succinimide 0.1%; Asn102 deamidation ND; Leu195/Ser196 cleavage 0.6%) VH: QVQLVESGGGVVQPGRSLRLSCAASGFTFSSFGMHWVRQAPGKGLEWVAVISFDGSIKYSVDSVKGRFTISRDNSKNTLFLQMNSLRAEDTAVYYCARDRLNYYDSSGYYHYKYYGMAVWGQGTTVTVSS VL: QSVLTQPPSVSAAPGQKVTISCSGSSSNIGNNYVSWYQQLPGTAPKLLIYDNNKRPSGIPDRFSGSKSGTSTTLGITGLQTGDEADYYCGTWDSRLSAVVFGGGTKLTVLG : % Relative Potency by Cell-Based Bioassay is 77

What the record says about Erenumab HIC-HPLC Pre-peak Fraction F4 (antibody, human IgG2, lambda, V domains shown, Asp105 isomerization (isoAsp) 5.5%; Asp105 succinimide 4.3%; Asn102 deamidation 11.6%; Leu195/Ser196 cleavage 0.4%) VH: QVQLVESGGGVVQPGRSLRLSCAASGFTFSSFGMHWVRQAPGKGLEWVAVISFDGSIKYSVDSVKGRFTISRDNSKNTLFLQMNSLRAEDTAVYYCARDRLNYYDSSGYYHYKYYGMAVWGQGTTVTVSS VL: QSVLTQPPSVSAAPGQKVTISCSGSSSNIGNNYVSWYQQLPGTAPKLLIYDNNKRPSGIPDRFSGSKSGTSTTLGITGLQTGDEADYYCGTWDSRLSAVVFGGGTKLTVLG : % Relative Potency by Cell-Based Bioassay is 34
